test: clinical; details: human, in vivo, 450 mg
quantity.kind: Cmax (µM)

>>> experimental_value("C=CCc1cccc(/C=N/NC(=O)CN2CCN(Cc3ccccc3)CC2)c1O [PAC-1]")
7.8

meta.source: patent US20220226311A1
